Collected pIC50 values appear next to each entry.
- target.or.test.system: Histone deacetylase 8 (Homo sapiens, UniProt Q9BY41)
- Sequence (Q9BY41 whole entry): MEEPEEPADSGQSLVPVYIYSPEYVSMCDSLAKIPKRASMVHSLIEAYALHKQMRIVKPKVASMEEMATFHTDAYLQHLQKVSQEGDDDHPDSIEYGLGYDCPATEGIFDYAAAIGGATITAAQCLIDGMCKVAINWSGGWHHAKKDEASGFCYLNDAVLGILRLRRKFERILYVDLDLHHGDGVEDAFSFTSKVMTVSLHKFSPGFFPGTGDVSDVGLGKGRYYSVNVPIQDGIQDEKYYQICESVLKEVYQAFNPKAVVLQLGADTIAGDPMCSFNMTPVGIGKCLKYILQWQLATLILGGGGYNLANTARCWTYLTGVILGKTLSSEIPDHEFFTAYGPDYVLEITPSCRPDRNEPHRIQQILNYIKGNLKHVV
- assay.details: Inhibition of recombinant C-terminal His-tagged human HDAC8 (1 to 377 residues) expressed in Baculovirus infected insect cells using RHK-K(Ac)-AMC as substrate by fluorimetric assay
Schema: pIC50 number; meaning minus log10 of the concentration expressed in molar units.

- smiles.entry: "O=C(CCCCCN1C(=O)c2cccc3c(N4CCOCC4)ccc(c23)C1=O)NO"
  val: 5.74
- smiles.entry: "O=C(CCCCCN1C(=O)c2cccc3c([N+](=O)[O-])ccc(c23)C1=O)NO"
  val: 6.21

Ask | Name the reported pIC50 value associated with the compound CCCNc1ccc2c3c(cccc13)C(=O)N(CCCCCC(=O)NO)C2=O
Reply | 5.82

Ask | Would you mind telling me what pIC50 value was observed for O=C(CCCCCN1C(=O)c2cccc3c(NCc4ccccc4)ccc(c23)C1=O)NO ?
Reply | 5.61

Ask | # pIC50 lookup, item O=C(CCCCCN1C(=O)c2cccc3c(Nc4ccccc4)ccc(c23)C1=O)NO
Reply | 5.39

Ask | So what's the measured pIC50 for this one? CN(Cc1ccccc1)c1ccc2c3c(cccc13)C(=O)N(CCCCCC(=O)NO)C2=O
Reply | 5.85

Ask | Consider the compound O=C(CCCCCN1C(=O)c2cccc3c(Nc4cccc(F)c4)ccc(c23)C1=O)NO and give its measured pIC50.
Reply | 5.39

* * *

- target.or.test.system: Histone deacetylase 7 (Homo sapiens)
- Sequence (Q8WUI4 whole entry, the tested form may be a part): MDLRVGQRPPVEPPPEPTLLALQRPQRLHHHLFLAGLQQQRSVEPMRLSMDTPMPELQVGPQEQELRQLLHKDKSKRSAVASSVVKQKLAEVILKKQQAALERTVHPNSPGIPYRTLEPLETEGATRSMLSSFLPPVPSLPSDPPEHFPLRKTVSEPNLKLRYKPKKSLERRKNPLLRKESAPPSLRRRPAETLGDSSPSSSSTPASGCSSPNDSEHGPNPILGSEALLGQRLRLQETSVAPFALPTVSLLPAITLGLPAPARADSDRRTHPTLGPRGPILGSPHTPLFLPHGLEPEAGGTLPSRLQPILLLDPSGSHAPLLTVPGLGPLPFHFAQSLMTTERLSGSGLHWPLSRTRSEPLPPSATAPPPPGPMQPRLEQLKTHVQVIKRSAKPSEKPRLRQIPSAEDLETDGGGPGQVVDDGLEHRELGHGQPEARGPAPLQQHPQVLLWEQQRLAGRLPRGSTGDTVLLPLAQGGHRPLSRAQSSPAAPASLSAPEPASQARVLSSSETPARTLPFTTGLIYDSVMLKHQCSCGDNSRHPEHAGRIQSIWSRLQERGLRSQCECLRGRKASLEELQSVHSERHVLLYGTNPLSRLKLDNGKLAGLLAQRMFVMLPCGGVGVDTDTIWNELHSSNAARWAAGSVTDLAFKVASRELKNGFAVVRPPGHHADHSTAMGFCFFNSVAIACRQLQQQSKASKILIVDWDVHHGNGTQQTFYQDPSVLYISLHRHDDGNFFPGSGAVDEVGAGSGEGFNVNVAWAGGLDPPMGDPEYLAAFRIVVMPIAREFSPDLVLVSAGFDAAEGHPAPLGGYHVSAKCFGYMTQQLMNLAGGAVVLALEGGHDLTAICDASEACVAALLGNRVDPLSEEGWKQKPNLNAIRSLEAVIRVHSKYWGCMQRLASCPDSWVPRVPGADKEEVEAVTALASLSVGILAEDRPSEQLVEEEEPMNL
- assay.details: Inhibition of recombinant N-terminal GST-tagged human HDAC7 (518 to 991 residues) expressed in Baculovirus infected insect cells using Boc-K(Ac)-AMC as substrate by fluorimetric assay
Each entry below carries its reported IC50.
Answer in µM, number only, no unit symbol.

- smiles.entry: "CCCNc1ccc2c3c(cccc13)C(=O)N(CCCCCC(=O)NO)C2=O"
  IC50 [µM]: 9.4

# evaluate next
Ask | Using the record for O=C(CCCCCN1C(=O)c2cccc3c(NCc4ccccc4)ccc(c23)C1=O)NO , report its IC50.
Reply | 3.2

* * *

Listed below: pIC50 values for each entry.
- target.or.test.system: Histone deacetylase 11 (Homo sapiens)
- Sequence (Q96DB2 whole entry): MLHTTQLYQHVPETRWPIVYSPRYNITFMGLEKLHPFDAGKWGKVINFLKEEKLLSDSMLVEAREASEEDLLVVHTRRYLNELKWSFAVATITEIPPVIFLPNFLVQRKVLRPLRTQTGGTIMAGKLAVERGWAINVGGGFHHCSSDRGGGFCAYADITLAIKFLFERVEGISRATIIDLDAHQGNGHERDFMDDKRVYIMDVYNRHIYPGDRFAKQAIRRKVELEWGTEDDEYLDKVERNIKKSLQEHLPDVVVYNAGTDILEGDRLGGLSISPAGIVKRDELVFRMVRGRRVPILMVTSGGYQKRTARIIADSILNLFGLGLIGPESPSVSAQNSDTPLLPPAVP
- assay.details: Inhibition of recombinant C-terminal His-tagged human HDAC11 (1 to 347 residues) expressed in Baculovirus infected insect cells using RHKK-Ac as substrate by fluorimetric assay
Scale explanation: pIC50 corresponds to minus log10 of a concentration expressed in moles per litre.

See these solved cases before continuing.
- smiles.entry: "O=C(CCCCCN1C(=O)c2cccc3c(N4CCOCC4)ccc(c23)C1=O)NO"
  target.or.test.system: "Histone deacetylase 11 (Homo sapiens)"
  pIC50: 6.54
- smiles.entry: "O=C(CCCCCN1C(=O)c2cccc3c(NCc4ccccc4)ccc(c23)C1=O)NO"
  target.or.test.system: "Histone deacetylase 11 (Homo sapiens)"
  pIC50: 6.82
- smiles.entry: "O=C(CCCCCN1C(=O)c2cccc3c(Nc4ccccc4)ccc(c23)C1=O)NO"
  target.or.test.system: "Histone deacetylase 11 (Homo sapiens)"
  pIC50: 6.72

Now look at this entry.
Ask | Quick check: pIC50 of Nc1ccccc1NC(=O)CCCCCN1C(=O)c2cccc3cccc(c23)C1=O ?
Reply | 5.03

* * *

IC50 by entry:
- target.or.test.system: Histone deacetylase 4 (Homo sapiens, UniProt P56524)
- assay.details: Inhibition of recombinant N-terminal GST-tagged /C-terminal His-tagged human HDAC4 (627 to 1084 residues) expressed in Baculovirus infected insect cells using Boc-Lys(trifluoroacetyl)-AMC as substrate by fluorimetric assay

- smiles.entry: "CCCNc1ccc2c3c(cccc13)C(=O)N(CCCCCC(=O)NO)C2=O"
  val: "> 10 µM"

Note: attention shifts to another entry.
Ask | Reported IC50 for O=C(CCCCCN1C(=O)c2cccc3c(NCc4ccccc4)ccc(c23)C1=O)NO : what is it?
Reply | 5.5 µM

* * *

- target.or.test.system: Histone deacetylase 2 (Homo sapiens)
- Sequence (Q92769 whole entry, the tested form may be a part): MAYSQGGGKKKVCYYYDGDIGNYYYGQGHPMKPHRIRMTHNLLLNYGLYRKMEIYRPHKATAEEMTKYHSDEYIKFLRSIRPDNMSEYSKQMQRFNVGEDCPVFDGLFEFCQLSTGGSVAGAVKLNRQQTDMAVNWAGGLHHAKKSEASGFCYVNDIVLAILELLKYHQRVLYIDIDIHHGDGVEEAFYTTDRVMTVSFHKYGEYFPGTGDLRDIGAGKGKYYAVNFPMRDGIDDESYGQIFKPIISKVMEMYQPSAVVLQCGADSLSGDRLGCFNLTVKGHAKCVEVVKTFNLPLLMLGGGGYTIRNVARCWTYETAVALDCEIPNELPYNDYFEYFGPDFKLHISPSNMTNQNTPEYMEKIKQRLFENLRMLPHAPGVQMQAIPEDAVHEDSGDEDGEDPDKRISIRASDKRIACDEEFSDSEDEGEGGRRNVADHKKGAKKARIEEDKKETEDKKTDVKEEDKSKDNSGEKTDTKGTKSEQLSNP
- assay.details: Inhibition of recombinant full length C-terminal GST-tagged human HDAC2 (1 to 488 residues) expressed in insect cells using RHK-K(Ac)-AMC as substrate by fluorimetric assay
parameter.measured: IC50 (µM)
Please reply with the bare figure in µM and do not write the unit itself.

- smiles.entry: "O=C(CCCCCN1C(=O)c2cccc3c(NCc4ccccc4)ccc(c23)C1=O)NO"
  unit.tag: "µM"
  val: 0.85

# evaluate next
Ask | Name the reported IC50 value associated with the compound CCCNc1ccc2c3c(cccc13)C(=O)N(CCCCCC(=O)NO)C2=O
Reply | 0.42

* * *

Below is a list of entries, each paired with its recorded IC50 value.
- target.or.test.system: Histone deacetylase 1 (Homo sapiens)
- Sequence (Q13547 whole entry, the tested form may be a part): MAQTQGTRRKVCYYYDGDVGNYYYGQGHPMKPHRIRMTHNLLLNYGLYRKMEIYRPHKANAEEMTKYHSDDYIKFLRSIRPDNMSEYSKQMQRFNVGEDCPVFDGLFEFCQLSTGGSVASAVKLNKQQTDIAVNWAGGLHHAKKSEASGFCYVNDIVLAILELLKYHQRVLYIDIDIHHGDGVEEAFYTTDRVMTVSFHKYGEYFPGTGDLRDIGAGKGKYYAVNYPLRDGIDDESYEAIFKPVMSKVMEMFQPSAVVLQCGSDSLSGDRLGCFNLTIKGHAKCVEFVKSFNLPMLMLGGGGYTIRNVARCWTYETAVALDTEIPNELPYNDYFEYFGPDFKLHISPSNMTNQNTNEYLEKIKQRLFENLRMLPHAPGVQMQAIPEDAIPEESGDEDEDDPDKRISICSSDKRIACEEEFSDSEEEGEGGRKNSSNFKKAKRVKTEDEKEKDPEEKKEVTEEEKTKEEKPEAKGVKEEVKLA
- assay.details: Inhibition of recombinant full length C-terminal FLAG/His-tagged human HDAC1 (1 to 482 residues) expressed in sf21 cells using RHK-K(Ac)-AMC as substrate by fluorimetric assay
Please reply with the bare figure in nM and do not write the unit itself.

Look over these answered cases.
- smiles.entry: "CN(Cc1ccccc1)c1ccc2c3c(cccc13)C(=O)N(CCCCCC(=O)NO)C2=O"
  target.or.test.system: "Histone deacetylase 1 (Homo sapiens)"
  unit.tag: "nM"
  IC50: 2380
- smiles.entry: "O=C(CCCCCN1C(=O)c2cccc3c(Nc4cccc(F)c4)ccc(c23)C1=O)NO"
  target.or.test.system: "Histone deacetylase 1 (Homo sapiens)"
  unit.tag: "nM"
  IC50: 3060
- smiles.entry: "O=C(CCCCCN1C(=O)c2cccc3c(N4CCOCC4)ccc(c23)C1=O)NO"
  target.or.test.system: "Histone deacetylase 1 (Homo sapiens)"
  unit.tag: "nM"
  IC50: 1430
- smiles.entry: "O=C(CCCCCN1C(=O)c2cccc3c(NCc4ccccc4)ccc(c23)C1=O)NO"
  target.or.test.system: "Histone deacetylase 1 (Homo sapiens)"
  unit.tag: "nM"
  IC50: 1980
- smiles.entry: "Nc1ccccc1NC(=O)CCCCCN1C(=O)c2cccc3cccc(c23)C1=O"
  target.or.test.system: "Histone deacetylase 1 (Homo sapiens)"
  unit.tag: "nM"
  IC50: 740
- smiles.entry: "Nc1ccccc1NC(=O)CCCCCN1C(=O)c2cccc3c(N4CCOCC4)ccc(c23)C1=O"
  target.or.test.system: "Histone deacetylase 1 (Homo sapiens)"
  unit.tag: "nM"
  IC50: 430
- smiles.entry: "CCCNc1ccc2c3c(cccc13)C(=O)N(CCCCCC(=O)NO)C2=O"
  target.or.test.system: "Histone deacetylase 1 (Homo sapiens)"
  unit.tag: "nM"
  IC50: 590
- smiles.entry: "O=C(CCCCCN1C(=O)c2cccc3c(Nc4ccccc4)ccc(c23)C1=O)NO"
  target.or.test.system: "Histone deacetylase 1 (Homo sapiens)"
  unit.tag: "nM"
  IC50: 2380

Turning now to a further molecule:
Ask | Dear colleague, I am looking for the recorded IC50 of the following molecule: O=C(CCCCCN1C(=O)c2cccc3c([N+](=O)[O-])ccc(c23)C1=O)NO
Reply | 630

* * *

- target.or.test.system: Histone deacetylase 3/Nuclear receptor corepressor 2 (HDAC3/NCoR2) (Homo sapiens, UniProt O15379)
- Sequence (O15379 whole entry): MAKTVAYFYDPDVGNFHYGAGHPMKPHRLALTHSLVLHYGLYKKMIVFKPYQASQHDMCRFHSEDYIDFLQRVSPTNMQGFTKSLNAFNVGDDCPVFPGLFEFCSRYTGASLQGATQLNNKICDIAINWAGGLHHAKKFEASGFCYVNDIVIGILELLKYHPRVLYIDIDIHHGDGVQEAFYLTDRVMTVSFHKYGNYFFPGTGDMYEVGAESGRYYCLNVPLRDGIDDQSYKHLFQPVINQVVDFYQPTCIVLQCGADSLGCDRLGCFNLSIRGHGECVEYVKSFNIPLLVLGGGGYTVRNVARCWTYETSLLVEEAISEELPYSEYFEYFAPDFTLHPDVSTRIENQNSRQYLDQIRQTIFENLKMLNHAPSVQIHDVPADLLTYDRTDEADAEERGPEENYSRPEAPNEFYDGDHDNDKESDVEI
- Sequence (Q9Y618 whole entry, further chain): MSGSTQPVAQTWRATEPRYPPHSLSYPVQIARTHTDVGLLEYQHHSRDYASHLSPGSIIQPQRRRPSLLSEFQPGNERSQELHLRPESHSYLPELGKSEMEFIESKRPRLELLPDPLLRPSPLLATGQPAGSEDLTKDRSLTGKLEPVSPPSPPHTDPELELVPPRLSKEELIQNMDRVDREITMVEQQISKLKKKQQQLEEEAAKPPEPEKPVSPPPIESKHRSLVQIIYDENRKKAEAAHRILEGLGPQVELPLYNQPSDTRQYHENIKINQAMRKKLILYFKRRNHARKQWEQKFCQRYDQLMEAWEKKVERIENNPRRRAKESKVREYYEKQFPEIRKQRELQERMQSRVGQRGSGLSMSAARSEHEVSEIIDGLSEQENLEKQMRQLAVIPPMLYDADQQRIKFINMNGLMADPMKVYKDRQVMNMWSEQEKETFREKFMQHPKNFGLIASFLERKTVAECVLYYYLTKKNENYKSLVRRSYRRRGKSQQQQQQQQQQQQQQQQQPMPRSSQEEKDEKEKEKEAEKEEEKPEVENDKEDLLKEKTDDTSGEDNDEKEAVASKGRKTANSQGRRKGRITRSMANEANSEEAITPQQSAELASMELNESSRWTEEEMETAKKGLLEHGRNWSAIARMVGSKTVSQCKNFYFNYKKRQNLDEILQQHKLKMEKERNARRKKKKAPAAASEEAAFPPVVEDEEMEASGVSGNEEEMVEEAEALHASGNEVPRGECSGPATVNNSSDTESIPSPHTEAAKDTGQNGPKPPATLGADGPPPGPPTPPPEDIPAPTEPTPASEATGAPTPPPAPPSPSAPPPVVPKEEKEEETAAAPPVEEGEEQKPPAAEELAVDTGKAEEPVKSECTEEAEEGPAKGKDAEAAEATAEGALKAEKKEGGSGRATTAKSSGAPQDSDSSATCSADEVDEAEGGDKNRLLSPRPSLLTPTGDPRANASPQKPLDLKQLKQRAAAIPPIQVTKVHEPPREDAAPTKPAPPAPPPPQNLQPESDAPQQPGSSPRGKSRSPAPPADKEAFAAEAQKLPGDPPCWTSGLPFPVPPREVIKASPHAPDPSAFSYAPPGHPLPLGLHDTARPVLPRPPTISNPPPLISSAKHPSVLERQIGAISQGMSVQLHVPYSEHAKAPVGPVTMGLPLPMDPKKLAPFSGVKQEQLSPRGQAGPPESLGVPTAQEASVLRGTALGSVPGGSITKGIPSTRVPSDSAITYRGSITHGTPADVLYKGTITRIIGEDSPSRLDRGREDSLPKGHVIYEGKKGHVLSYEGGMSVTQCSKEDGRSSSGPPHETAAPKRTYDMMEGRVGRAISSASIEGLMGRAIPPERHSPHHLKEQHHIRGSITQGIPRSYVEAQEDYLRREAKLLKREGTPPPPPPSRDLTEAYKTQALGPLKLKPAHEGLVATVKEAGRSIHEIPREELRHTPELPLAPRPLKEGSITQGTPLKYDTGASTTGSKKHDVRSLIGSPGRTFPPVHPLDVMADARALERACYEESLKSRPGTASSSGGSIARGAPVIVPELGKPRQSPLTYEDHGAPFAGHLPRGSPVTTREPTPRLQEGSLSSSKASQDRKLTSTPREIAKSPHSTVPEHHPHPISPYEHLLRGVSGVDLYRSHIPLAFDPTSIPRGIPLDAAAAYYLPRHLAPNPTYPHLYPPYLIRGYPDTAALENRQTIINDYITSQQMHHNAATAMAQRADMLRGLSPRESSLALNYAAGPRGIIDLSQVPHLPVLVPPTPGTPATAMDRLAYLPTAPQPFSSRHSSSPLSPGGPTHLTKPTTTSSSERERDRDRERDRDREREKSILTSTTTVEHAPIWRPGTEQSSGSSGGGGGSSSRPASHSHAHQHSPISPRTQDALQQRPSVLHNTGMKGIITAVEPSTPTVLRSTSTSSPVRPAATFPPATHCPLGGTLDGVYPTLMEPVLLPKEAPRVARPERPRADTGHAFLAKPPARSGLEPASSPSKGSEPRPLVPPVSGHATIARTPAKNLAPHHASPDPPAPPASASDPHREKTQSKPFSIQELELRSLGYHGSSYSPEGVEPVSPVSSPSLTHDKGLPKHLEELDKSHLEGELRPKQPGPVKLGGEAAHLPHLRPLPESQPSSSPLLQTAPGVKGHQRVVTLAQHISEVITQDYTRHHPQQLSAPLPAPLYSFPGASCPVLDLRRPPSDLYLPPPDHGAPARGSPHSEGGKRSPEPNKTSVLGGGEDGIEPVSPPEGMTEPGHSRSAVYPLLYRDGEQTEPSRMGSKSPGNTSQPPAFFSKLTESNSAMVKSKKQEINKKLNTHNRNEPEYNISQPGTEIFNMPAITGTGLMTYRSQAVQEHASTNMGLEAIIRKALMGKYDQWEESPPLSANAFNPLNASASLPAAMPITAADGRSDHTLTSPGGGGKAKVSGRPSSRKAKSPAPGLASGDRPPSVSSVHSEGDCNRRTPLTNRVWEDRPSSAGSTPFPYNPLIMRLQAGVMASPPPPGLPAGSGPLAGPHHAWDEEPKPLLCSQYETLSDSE
parameter.measured: IC50 (nM)
Report the value in nM with no unit label.

Observe how each entry below is paired with its result.
- smiles.entry: "O=C(CCCCCN1C(=O)c2cccc3c([N+](=O)[O-])ccc(c23)C1=O)NO"
  IC50 / nM: 1620
- smiles.entry: "O=C(CCCCCN1C(=O)c2cccc3c(Nc4cccc(F)c4)ccc(c23)C1=O)NO"
  IC50 / nM: 550
- smiles.entry: "O=C(CCCCCN1C(=O)c2cccc3c(N4CCOCC4)ccc(c23)C1=O)NO"
  IC50 / nM: 320
- smiles.entry: "CN(Cc1ccccc1)c1ccc2c3c(cccc13)C(=O)N(CCCCCC(=O)NO)C2=O"
  IC50 / nM: 700

Ask | So what's the measured IC50 for this one? O=C(CCCCCN1C(=O)c2cccc3c(Nc4ccccc4)ccc(c23)C1=O)NO
Reply | 470

Values were extracted from ChEMBL document CHEMBL4325904.
